Source: paper PMC8469489

assay: Recovery of ginsenosides from urine and feces for 48 h after RGE, amoxicillin vs control; conditions: feces 48 h after single oral RGE 2 g/kg; vs control
parameter measured: Fecal recovery, change by the amoxicillin treatment

CC(C)=CCC[C@](C)(O)[C@H]1CC[C@]2(C)[C@@H]1[C@H](O)C[C@@H]1[C@@]3(C)CC[C@H](O[C@@H]4O[C@H](CO)[C@@H](O)[C@H](O)[C@H]4O[C@@H]4O[C@H](CO)[C@@H](O)[C@H](O)[C@H]4O)C(C)(C)[C@@H]3CC[C@]12C [GRg3]    increased
CC(C)=CCC[C@](C)(O[C@@H]1O[C@H](CO[C@@H]2O[C@@H](CO)[C@H](O)[C@H]2O)[C@@H](O)[C@H](O)[C@H]1O)[C@H]1CC[C@]2(C)[C@@H]1[C@H](O)C[C@@H]1[C@@]3(C)CC[C@H](O[C@@H]4O[C@H](CO)[C@@H](O)[C@H](O)[C@H]4O[C@@H]4O[C@H](CO)[C@@H](O)[C@H](O)[C@H]4O)C(C)(C)[C@@H]3CC[C@]12C [GRc]    increased
CC(C)=CCC[C@](C)(O)[C@H]1CC[C@]2(C)[C@@H]1[C@H](O)C[C@@H]1[C@@]3(C)CC[C@H](O)C(C)(C)[C@@H]3[C@@H](O[C@@H]3O[C@H](CO)[C@@H](O)[C@H](O)[C@H]3O[C@@H]3O[C@H](CO)[C@@H](O)[C@H](O)[C@H]3O)C[C@]12C [GRf]    increased

---

test: Pharmacokinetics of ginsenosides after single oral RGE with or without amoxicillin treatment; format: in vivo, mice; settings: male, ICR, mouse, plasma, po, 2 g/kg, Amoxicillin 3 days pretreatment; single oral RGE 2 g/kg; read-out: MRT
parameter measured: MRT (h)
Please give a number only; it is taken to be in h.

Quick check: MRT of CC(C)=CCC[C@](C)(O[C@@H]1O[C@H](CO[C@@H]2O[C@H](CO)[C@@H](O)[C@H](O)[C@H]2O)[C@@H](O)[C@H](O)[C@H]1O)[C@H]1CC[C@]2(C)[C@@H]1[C@H](O)C[C@@H]1[C@@]3(C)CC[C@H](O[C@@H]4O[C@H](CO)[C@@H](O)[C@H](O)[C@H]4O[C@@H]4O[C@H](CO)[C@@H](O)[C@H](O)[C@H]4O)C(C)(C)[C@@H]3CC[C@]12C [GRb1, 20(S)-ginsenosides Rb1] ?
19.3

---

assay: Pharmacokinetics of ginsenosides after single oral RGE after amoxicillin with or without repeated LAB treatment; settings: Amoxicillin + LAB; single oral RGE 2 g/kg
parameter measured: Half-Life (h)
Please give a number only; it is taken to be in h.

Quick check: Half-Life of CC(C)=CCC[C@](C)(O[C@@H]1O[C@H](CO[C@@H]2O[C@@H](CO)[C@H](O)[C@H]2O)[C@@H](O)[C@H](O)[C@H]1O)[C@H]1CC[C@]2(C)[C@@H]1[C@H](O)C[C@@H]1[C@@]3(C)CC[C@H](O[C@@H]4O[C@H](CO)[C@@H](O)[C@H](O)[C@H]4O[C@@H]4O[C@H](CO)[C@@H](O)[C@H](O)[C@H]4O)C(C)(C)[C@@H]3CC[C@]12C [GRc] ?
24.1

Now the compound CC(C)=CCC[C@](C)(O)[C@H]1CC[C@]2(C)[C@@H]1[C@H](O)C[C@@H]1[C@@]3(C)CC[C@H](O[C@@H]4O[C@H](CO)[C@@H](O)[C@H](O)[C@H]4O[C@@H]4O[C@H](CO)[C@@H](O)[C@H](O)[C@H]4O)C(C)(C)[C@@H]3CC[C@]12C [GRg3]
5.3

Now the compound CC(C)=CCC[C@](C)(O[C@@H]1O[C@H](CO)[C@@H](O)[C@H](O)[C@H]1O)[C@H]1CC[C@]2(C)[C@@H]1[C@H](O)C[C@@H]1[C@@]3(C)CC[C@H](O)C(C)(C)[C@@H]3CC[C@]12C [CK, 20(S)-compound K]
12.0
